Origin of measurements: the NIST ThermoML archive (doi:10.1021/je101232g)

Could you please report measured mass density for the items listed next?
# SETTINGS: 293.15 K; 30000 kPa; Liquid
Numbers only, in kg/m3.

COMPOUND | MEASURE | QUANTITATIVE_READOUT
CCCCCCCCCCCCCC[P+](CCCCCC)(CCCCCC)CCCCCC.[Cl-] [trihexyl(tetradecyl)phosphonium chloride] | mass density | 906.3
CCCCCCCCCCCCCC[P+](CCCCCC)(CCCCCC)CCCCCC.N#C[N-]C#N [tetradecyl(trihexyl)phosphonium dicyanamide] | mass density | 914.9
CCCCCCCCCCCCCC[P+](CCCCCC)(CCCCCC)CCCCCC.CS(=O)(=O)[O-] [trihexyltetradecylphosphonium methanesulfonate] | mass density | 947.1
CCCCCCCCCCCCCC[P+](CCCCCC)(CCCCCC)CCCCCC.[Br-] [tetradecyltrihexylphosphonium bromide] | mass density | 971.8

mass density reading for CCCCCCCCCCCCCC[P+](CCCCCC)(CCCCCC)CCCCCC.O=S(=O)([N-]S(=O)(=O)C(F)(F)F)C(F)(F)F : 1086.6
